Assay: Metabolic stability in pooled human plasma assessed as parent compound remaining at 20 uM measured immediately by LC-MS analysis
Type: ADME, cell-free
Details: read-out: Stability
Each item that follows carries a reported remaining at 0 min, 20 µM.
// note: answer is a bare numeric in %

1. CC(C)(C)COC(=O)c1csc(-c2c(Cl)cccc2Cl)n1 ... 100
2. O=C(O)c1csc(-c2c(Cl)cccc2Cl)n1 ... 100

Next molecule, please.
Qu. Dear colleague, I am looking for the recorded remaining at 0 min, 20 µM of the following molecule: CC(C)(C)OC(=O)c1csc(-c2c(Cl)cccc2Cl)n1
Ans. 100

* * *

Assay: Drug concentration in mouse plasma at 10 mg/kg, po measured after 0.5 hrs by LC-MS/MS analysis
Type: ADME, organism-based
Property label: concentration at 0.5 h
Write the quantity with the unit trailing the number.

Qu. Dear colleague, I am looking for the recorded concentration at 0.5 h of the following compound: CC(C)(C)OC(=O)c1csc(-c2c(Cl)cccc2Cl)n1
Ans. 137 ng/mL

* * *

Experiment: Drug concentration in mouse plasma at 10 mg/kg, ip measured after 0.5 hrs by LC-MS/MS analysis
Format: ADME, organism-based
Property label: concentration at 0.5 h
Write the quantity with the unit trailing the number.

Qu. Dear colleague, I am looking for the recorded concentration at 0.5 h of the following molecule: O=C(O)c1csc(-c2c(Cl)cccc2Cl)n1
Ans. 18600 ng/mL

* * *

Each item that follows carries a reported log10(Ki).
Molecular target: Calcium/calmodulin-dependent protein kinase type II subunit alpha (Rattus norvegicus, UniProt P11275)
Sequence (P11275 whole entry): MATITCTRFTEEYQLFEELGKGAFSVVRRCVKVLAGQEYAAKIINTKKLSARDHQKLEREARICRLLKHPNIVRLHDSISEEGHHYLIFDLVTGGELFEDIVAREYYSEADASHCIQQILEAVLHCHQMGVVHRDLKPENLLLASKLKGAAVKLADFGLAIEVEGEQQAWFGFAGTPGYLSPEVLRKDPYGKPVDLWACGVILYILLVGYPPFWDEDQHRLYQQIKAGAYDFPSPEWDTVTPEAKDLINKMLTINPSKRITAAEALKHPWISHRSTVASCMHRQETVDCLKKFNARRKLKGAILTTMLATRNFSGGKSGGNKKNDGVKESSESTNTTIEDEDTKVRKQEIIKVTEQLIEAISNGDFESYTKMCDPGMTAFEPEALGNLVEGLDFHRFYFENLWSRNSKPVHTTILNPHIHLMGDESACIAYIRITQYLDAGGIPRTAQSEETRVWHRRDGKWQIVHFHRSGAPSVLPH
Experiment: Inhibition of [3H]NCS-382 binding to CaMKIIalpha in rat brain cortical membrane assessed as inhibition constant incubated for 1 hrs by TopCount NXT microplate scintillation counter analysis
Format: cell membranes, Cortex
Conditions: read-out: Ki
// stored as log10 of Ki expressed in µM

Consider the reported log10(Ki) for these compounds:
1. O=C(O)c1csc(-c2ccccc2Br)n1 ... -0.74
2. O=C(O)c1csc(-c2ccccc2O)n1 ... 0.90
3. O=C(O)c1csc(-c2ccc(C(F)(F)F)cc2)n1 ... 1.01

Qu. Dear colleague, I am looking for the recorded log10(Ki) of the following compound: O=C(O)c1csc(-c2ccccc2I)n1
Ans. -0.80

Qu. Dear colleague, I am looking for the recorded log10(Ki) of the following compound: COc1ccccc1-c1nc(C(=O)O)cs1
Ans. 0.49

* * *

Tested on: BCRP
Test: Apparent permeability across basolateral to apical side in human Caco-2 cells transfected with human BCRP at 3 uM measured after 60 to 90 mins by LC-MS/MS analysis
Format: ADME, cell-based
Settings: time 60-90 min
Property label: Papp B→A at 3 µM (nm/s)
// note: answer is a bare numeric in nm/s

Qu. Dear colleague, I am looking for the recorded Papp B→A at 3 µM of the following molecule: O=C(O)c1csc(-c2c(Cl)cccc2Cl)n1
Ans. 113

* * *

Experiment: Metabolic stability in pooled CD-1 mouse liver microsomes assessed as parent compound remaining at 10 uM measured after 30 mins in presence of NADPH regeneration system by LC-MS analysis
Assay type: ADME, Microsome
Settings: read-out: Stability
Each item that follows carries a reported remaining at 0.5 h, 10 µM.
// note: answer is a bare numeric in %

1) O=C(O)c1csc(-c2c(Cl)cccc2Cl)n1 ... 104
2) CC(C)(C)COC(=O)c1csc(-c2c(Cl)cccc2Cl)n1 ... 75

Next compound, please.
Qu. Dear colleague, I am looking for the recorded remaining at 0.5 h, 10 µM of the following compound: CC(C)(C)OC(=O)c1csc(-c2c(Cl)cccc2Cl)n1
Ans. 53
